Target: T1, HCV Core1-169 (hepatitis C virus (HCV-1), UniProt P26664 1-169)
T1 sequence: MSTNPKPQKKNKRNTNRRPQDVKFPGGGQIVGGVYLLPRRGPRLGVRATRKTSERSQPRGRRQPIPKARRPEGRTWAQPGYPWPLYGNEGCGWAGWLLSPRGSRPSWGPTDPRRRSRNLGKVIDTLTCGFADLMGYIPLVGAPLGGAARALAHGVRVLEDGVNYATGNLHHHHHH
Assay: SPR sandwich, capture mAb C11-3
Parameter expected percent binding: see the listing below.

>  <binder>
HCV 208A-352 (antibody, V domains shown) VH: QGQMQQSGAELVKPGASVKLSCKTSGFTFSSSFISWLKQKPGQSLEWIAWIYAGTGNTNYNQKFTDKAQLTVDTSSSTAYMQFSSLTTEDSAIYYCAISGTGFTYWGQGTLVTVSA VL: DVLMAQTPLSLPVTLGDQASISCRSSQSLVHSNGNTYLEWFLQKPGQSPKLLIYNVSNRFSGVPDRFSGSGSGTDFTLKISRVEAEDLGVYYCFQGSHVPLTFGSGTKLEIKR

>  <expected percent binding>
≤ 1%

$$$$
>  <binder>
HCV 208B-515 (antibody, V domains shown) VH: QVQLQQPGAELVKPGASLKLSCRASGYTFTSYWIHWVKQRPGQGLEWIGEIDPSDSYTNYNQKFKGKATLTVDKSSRAAYMQLSSLTSEDSAVYYCARHYYGVFDSWGQGTKLTVSS VL: QIVFTQYPAIMSASLGERVTMTCTASSSVTSSYLHWFQQKPGSSPKLWIYSTSNPGSGVPARFSGRGSGTSYSLSISSMEAEDAATYYCLQFHRSPWTFGGGTKLEIRR

>  <expected percent binding>
≤ 1%

$$$$

Turning now to a further record.
Request: Supply recorded expected percent binding for HCV 208A-741 (antibody, V domains shown) VH: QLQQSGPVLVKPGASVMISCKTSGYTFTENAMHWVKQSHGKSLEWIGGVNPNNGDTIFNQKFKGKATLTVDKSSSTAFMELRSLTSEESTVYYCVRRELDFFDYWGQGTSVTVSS VL: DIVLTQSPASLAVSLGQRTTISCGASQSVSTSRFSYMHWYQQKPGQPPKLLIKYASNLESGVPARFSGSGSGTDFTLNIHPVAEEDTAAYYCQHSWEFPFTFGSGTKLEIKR here.
Result: 19.4%

Reference source for all entries: patent US20170052184A1
